Assay: inhibitors of TNFa-induced NFkB p65 translocation, primary screen, imaging, HUVEC, MLSMR starter and 10KST1 sets (AID 438);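 note: compound added about 3h40 before a 20 min TNFalpha stimulation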
Conditions: HUVEC TNFa-induced p65 nuclear translocation; measured here: nuclei count (cytotoxicity indicator), at 2.08 µM
# cell count per entry
// no unit string in output, number only

# example entries with known answers
# COMPOUND, cell count
rows = [
    ("COc1ccc(CCn2c(C)ccc2C)cc1OC", 476),
    ("O=C(O)c1cc(=O)cc(C(=O)O)[nH]1", 482),
    ("COc1ccc(/C(O)=C2/C(=O)C(=O)N(CCN3CCOCC3)C2c2ccccn2)cc1OC (stereo not drawn)", 409),
    ("Cc1c(C)c2cc(Cl)c(O)c(CN3CCCCC3)c2oc1=O", 393),
    ("NS(=O)(=O)c1cc2c(cc1C(F)(F)F)NC(Cc1ccccc1)NS2(=O)=O (stereo not drawn)", 519),
    ("Cn1c(=O)c2c3c(sc2n2c(SCC(=O)c4ccc(Cl)cc4)nnc12)COC(C)(C)C3", 673),
    ("COc1cccc(-c2nc(N3CCCCC3)c3ccccc3n2)c1O", 528),
    ("CC1=C(C(=O)Nc2ccccc2)C(c2ccncc2)C(C#N)=C(SCC(=O)NC(C)C)N1 (stereo not drawn)", 532),
]

So what's the measured cell count for this one? Cc1c(O)c(CN2CCCCC2)cc2c3c(c(=O)oc12)CCC3 706

So what's the measured cell count for this one? COc1cccc(OC)c1-c1nn2c(-c3ccco3)nnc2s1 630

So what's the measured cell count for this one? CCOC(=O)CC(=O)CSc1nc2c(cc1C#N)CCCCCC2 706

====

Target: Voltage-gated potassium channel subunit beta-2 (Rattus norvegicus)
Test: KvBeta enzyme negative modulators, primary screen, biochemical, NADPH fluorescence (AID 622);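 note: slope of raw intensity against log time taken from 70 to 1610 s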
Details: recombinant KvBeta, 4-cyanobenzaldehyde reduction, at 10 µM, stronger effect = higher value
Label 1 for high-side fluorescence slope (at or above -0.5) and 0 for low-side fluorescence slope (below it).

Known results for compounds:
# COMPOUND, CLASS_NAME
data = [
    ("CC1CN(C2CCN(S(=O)(=O)c3ccccc3)CC2)CC(C)O1 (stereo not drawn)", 1),
    ("O=C(CCC1CCCC1)N1CCC(N2CCN(c3ccccc3)CC2)CC1", 1),
    ("CCOC(=O)CC(=O)CSc1nc2c(cc1C#N)CCCCC2", 1),
    ("CC(C)N1CC=C2C(C#N)=C(N)C(C#N)(C#N)C(c3ccccc3)C2C1 (stereo not drawn)", 1),
    ("COCc1cc(=O)[nH]c(Nc2nc3ccc(C)cc3o2)n1", 1),
    ("CC/C(=N\\O)c1ccc(OC)c(OC)c1", 1),
    ("CCOC(=O)c1nc(N)c(C(=O)OCC)[nH]1", 1),
    ("Cc1cc(C)c(C#N)c(SCc2[nH]nc3c2C(c2ccccc2)C(C#N)=C(N)O3)n1 (stereo not drawn)", 0),
    ("C=COC(=O)CSc1nc(-c2cccs2)ccc1C#N", 1),
    ("COc1ccc2c(c1)nc(N)n2Cc1ccccc1", 1),
]

Now look at this one.
Hello, I need to know if COc1ccc(CCn2c(=N)c(C(=O)NCc3ccco3)cc3c(=O)n4ccccc4nc32)cc1 has measured fluorescence slope not below -0.5. Thanks! 0
